These measurements were taken from patent US8754100B2.

tested on: Aβ42 production in rat primary neuronal culture; experiment: Quantification of Aβ peptide (Aβ42 ELISA) in culture of neurons from rat fetus brain; format: cell-based; conditions: primary neuronal culture from cerebral cortex of embryonic day 18 Wistar rats; cultured three days after addition of compound; Aβ42 in medium by ELISA; read-out: Aβ42 Production reducing action IC50
Listed here are compounds together with their documented pIC50.
Remember, pIC50 is on a log scale: it is -log10 of the molar concentration.

COc1ccc([C@@H]2CCCn3nc(-c4ccc(-n5cnc(C)c5)c(OC)n4)nc32)cc1C(C)(C)C [Example 59]: 8.15

Now turn to the next compound.
input: I have this compound here, COc1nc(-c2nc3n(n2)CCC[C@H]3c2ccc(Br)cc2C(F)(F)F)ccc1-n1cnc(C)c1 [Example 42] , and I need its recorded pIC50.
output: 7.28
